Assay: Plasma pharmacokinetics of BI 187004 after single oral doses (LC–MS/MS)
Settings: male, human, plasma, po, 2.5 mg, Plasma concentration Median, 2.5 mg single oral; 4 h
Quantity name: concentration at 4 h (nM)
Answers are plain numbers, in nM.

## Task Check the records and state concentration at 4 h for N#Cc1ccc2c(c1)[C@H]1CCCN(C(=O)c3ccc4[nH]cnc4c3)[C@H]1C2
## Result 6.03

====

Experiment: Plasma pharmacokinetics of BI 187004 after single oral doses (LC–MS/MS)
Details: male, human, plasma, po, 5 mg, Plasma concentration, individual subjects, 5 mg single oral; planned time 6 h
Quantity name: concentration at 6 h
Remember to quote the unit after the number.

## Task Check the records and state concentration at 6 h for N#Cc1ccc2c(c1)[C@H]1CCCN(C(=O)c3ccc4[nH]cnc4c3)[C@H]1C2
## Result 80.6 nM

====

Experiment: Plasma pharmacokinetics of BI 187004 after single oral doses (LC–MS/MS)
Conditions: male, human, plasma, po, 80 mg, BI 187004 plasma concentrations, 80 mg single oral, planned time 6 h, Mean
Quantity name: concentration at 6 h (nM)
Numbers only, in nM.

## Task Check the records and state concentration at 6 h for N#Cc1ccc2c(c1)[C@H]1CCCN(C(=O)c3ccc4[nH]cnc4c3)[C@H]1C2 [BI 187004]
## Result 1740

====

Assay: Plasma pharmacokinetics of BI 187004 after single oral doses (LC–MS/MS)
Conditions: male, human, plasma, po, 360 mg
Quantity name: Vd/F
Remember to quote the unit after the number.

## Task Check the records and state Vd/F for N#Cc1ccc2c(c1)[C@H]1CCCN(C(=O)c3ccc4[nH]cnc4c3)[C@H]1C2
## Result 110 L

====

Assay: Plasma pharmacokinetics of BI 187004 after single oral doses (LC–MS/MS)
Details: male, human, plasma, po, 160 mg, BI 187004 plasma concentrations, 160 mg single oral, planned time 72 h, Max
Quantity name: concentration at 72 h (nM)
Answers are plain numbers, in nM.

## Task Check the records and state concentration at 72 h for N#Cc1ccc2c(c1)[C@H]1CCCN(C(=O)c3ccc4[nH]cnc4c3)[C@H]1C2
## Result 312

====

Test: Plasma pharmacokinetics of BI 187004 after single oral doses (LC–MS/MS)
Conditions: male, human, plasma, po, 240 mg, BI 187004 plasma concentrations, Median, 240 mg single oral, planned time 8 h
Quantity name: concentration at 8 h (µM)
Answers are plain numbers, in µM.

## Task Check the records and state concentration at 8 h for N#Cc1ccc2c(c1)[C@H]1CCCN(C(=O)c3ccc4[nH]cnc4c3)[C@H]1C2
## Result 4.37

====

Test: Plasma pharmacokinetics of BI 187004 after single oral doses (LC–MS/MS)
Conditions: male, human, plasma, po, 5 mg, Plasma concentration Median, 5 mg single oral; 1 h
Quantity name: concentration at 1 h (nM)
Numbers only, in nM.

## Task Check the records and state concentration at 1 h for N#Cc1ccc2c(c1)[C@H]1CCCN(C(=O)c3ccc4[nH]cnc4c3)[C@H]1C2 [BI 187004]
## Result 141

====

Experiment: Plasma pharmacokinetics of BI 187004 after single oral doses (LC–MS/MS)
Conditions: male, human, plasma, po, 360 mg, BI 187004 plasma concentrations, Max, 360 mg single oral, planned time 12 h
Quantity name: concentration at 12 h (µM)
Answers are plain numbers, in µM.

## Task Check the records and state concentration at 12 h for N#Cc1ccc2c(c1)[C@H]1CCCN(C(=O)c3ccc4[nH]cnc4c3)[C@H]1C2 [BI 187004]
## Result 6.08

====

Test: Plasma pharmacokinetics of BI 187004 after single oral doses (LC–MS/MS)
Conditions: male, human, plasma, po, 20 mg, BI 187004 plasma concentrations, 20 mg single oral, planned time 2.5 h, Min
Quantity name: concentration at 2.5 h (nM)
Give bare numbers, in nM.

## Task Check the records and state concentration at 2.5 h for N#Cc1ccc2c(c1)[C@H]1CCCN(C(=O)c3ccc4[nH]cnc4c3)[C@H]1C2
## Result 619

====

Assay: Plasma pharmacokinetics of BI 187004 after single oral doses (LC–MS/MS)
Settings: male, human, plasma, po, 20 mg, BI 187004 plasma concentrations, 20 mg single oral, planned time 2 h, Min
Quantity name: concentration at 2 h (nM)
Give bare numbers, in nM.

## Task Check the records and state concentration at 2 h for N#Cc1ccc2c(c1)[C@H]1CCCN(C(=O)c3ccc4[nH]cnc4c3)[C@H]1C2 [BI 187004]
## Result 630

====

Test: Plasma pharmacokinetics of BI 187004 after single oral doses (LC–MS/MS)
Details: male, human, plasma, po, 2.5 mg, Plasma concentration Median, 2.5 mg single oral; 5 h
Quantity name: concentration at 5 h (nM)
Answers are plain numbers, in nM.

## Task Check the records and state concentration at 5 h for N#Cc1ccc2c(c1)[C@H]1CCCN(C(=O)c3ccc4[nH]cnc4c3)[C@H]1C2
## Result 7.1

====

Experiment: Plasma pharmacokinetics of BI 187004 after single oral doses (LC–MS/MS)
Conditions: male, human, plasma, po, 2.5 mg
Quantity name: Tmax (h)
Answers are plain numbers, in h.

## Task Check the records and state Tmax for N#Cc1ccc2c(c1)[C@H]1CCCN(C(=O)c3ccc4[nH]cnc4c3)[C@H]1C2
## Result 1

====

Assay: Plasma pharmacokinetics of BI 187004 after single oral doses (LC–MS/MS)
Conditions: male, human, plasma, po, 240 mg, BI 187004 plasma concentrations, Mean, 240 mg single oral, planned time 12 h
Quantity name: concentration at 12 h (nM)
Answers are plain numbers, in nM.

## Task Check the records and state concentration at 12 h for N#Cc1ccc2c(c1)[C@H]1CCCN(C(=O)c3ccc4[nH]cnc4c3)[C@H]1C2
## Result 2590

====

Test: Plasma pharmacokinetics of BI 187004 after single oral doses (LC–MS/MS)
Conditions: male, human, plasma, po, 2.5 mg, Plasma concentration, individual subjects, 2.5 mg single oral; planned time 12 h
Quantity name: concentration at 12 h (nM)
Give bare numbers, in nM.

## Task Check the records and state concentration at 12 h for N#Cc1ccc2c(c1)[C@H]1CCCN(C(=O)c3ccc4[nH]cnc4c3)[C@H]1C2 [BI 187004]
## Result 6.44

====

Assay: Plasma pharmacokinetics of BI 187004 after single oral doses (LC–MS/MS)
Conditions: male, human, plasma, po, 2.5 mg, Plasma concentration Median, 2.5 mg single oral; 2.5 h
Quantity name: concentration at 2.5 h

## Task Check the records and state concentration at 2.5 h for N#Cc1ccc2c(c1)[C@H]1CCCN(C(=O)c3ccc4[nH]cnc4c3)[C@H]1C2
## Result 8.45 nM

====

Experiment: Plasma pharmacokinetics of BI 187004 after single oral doses (LC–MS/MS)
Conditions: male, human, plasma, po, 240 mg, BI 187004 plasma concentrations, Min, 240 mg single oral, planned time 4 h
Quantity name: concentration at 4 h (nM)
Give bare numbers, in nM.

## Task Check the records and state concentration at 4 h for N#Cc1ccc2c(c1)[C@H]1CCCN(C(=O)c3ccc4[nH]cnc4c3)[C@H]1C2 [BI 187004]
## Result 575

====

Assay: Plasma pharmacokinetics of BI 187004 after single oral doses (LC–MS/MS)
Conditions: male, human, plasma, po, 80 mg, BI 187004 plasma concentrations, 80 mg single oral, planned time 12 h, gMean
Quantity name: concentration at 12 h (nM)
Numbers only, in nM.

## Task Check the records and state concentration at 12 h for N#Cc1ccc2c(c1)[C@H]1CCCN(C(=O)c3ccc4[nH]cnc4c3)[C@H]1C2
## Result 1320

====

Test: Plasma pharmacokinetics of BI 187004 after single oral doses (LC–MS/MS)
Details: male, human, plasma, po, 5 mg
Quantity name: Cmax (nM)
Give bare numbers, in nM.

## Task Check the records and state Cmax for N#Cc1ccc2c(c1)[C@H]1CCCN(C(=O)c3ccc4[nH]cnc4c3)[C@H]1C2
## Result 150

====

Assay: Plasma pharmacokinetics of BI 187004 after single oral doses (LC–MS/MS)
Conditions: male, human, plasma, po, 5 mg, Plasma concentration Median, 5 mg single oral; 12 h
Quantity name: concentration at 12 h (nM)
Give bare numbers, in nM.

## Task Check the records and state concentration at 12 h for N#Cc1ccc2c(c1)[C@H]1CCCN(C(=O)c3ccc4[nH]cnc4c3)[C@H]1C2
## Result 50.3

====

Experiment: Plasma pharmacokinetics of BI 187004 after single oral doses (LC–MS/MS)
Conditions: male, human, plasma, po, 80 mg, BI 187004 plasma concentrations, 80 mg single oral, planned time 12 h, Min
Quantity name: concentration at 12 h
Remember to quote the unit after the number.

## Task Check the records and state concentration at 12 h for N#Cc1ccc2c(c1)[C@H]1CCCN(C(=O)c3ccc4[nH]cnc4c3)[C@H]1C2
## Result 959 nM

====

Assay: Plasma pharmacokinetics of BI 187004 after single oral doses (LC–MS/MS)
Details: male, human, plasma, po, 240 mg, BI 187004 plasma concentrations, Max, 240 mg single oral, planned time 10 h
Quantity name: concentration at 10 h (µM)
One number for each entry, in µM.

## Task Check the records and state concentration at 10 h for N#Cc1ccc2c(c1)[C@H]1CCCN(C(=O)c3ccc4[nH]cnc4c3)[C@H]1C2
## Result 5.8
